Origin of the recorded values: ChEMBL document CHEMBL3885881

# Species: Rattus norvegicus
# PROCEDURE DETAILS: DrugMatrix - Regimen: Daily Repeat
# Format: toxicity, organism-based, Sprague-Dawley
# Parameters: regimen Daily Repeat, gender Male, age 6-8 weeks
# EXPERIMENTAL CONDITIONS: in vivo, ip, 40 mg/kg, […], tissue Blood, route intraperitoneal, dose level High, time 14 day, vehicle 100 % SALINE
ENDPOINT LABEL: ABSOLUTE EOSINOPHIL (cells/µL)

[[record]]
smiles_record = "NC[C@H]1O[C@H](O[C@H]2[C@H](O)[C@@H](O[C@H]3O[C@H](CO)[C@@H](O)[C@H](N)[C@H]3O)[C@H](N)C[C@@H]2N)[C@H](N)C[C@@H]1O"
recorded_measurement = 60


* * *

# Organism: Rattus norvegicus
# PROCEDURE DETAILS: DrugMatrix - Regimen: Daily Repeat
# Type: toxicity, organism-based, Sprague-Dawley
# Parameters: regimen Daily Repeat, gender Male, age 6-8 weeks
# EXPERIMENTAL CONDITIONS: in vivo, po, 15 mg/kg, 72 h, tissue Blood, route oral GAVAGE, dose level High, time 3 day, […]
ENDPOINT LABEL: ABSOLUTE MONOCYTE (cells/µL)

[[record]]
compound = "CC(CCc1ccc(O)cc1)NCCc1ccc(O)c(O)c1 (stereo unspecified)"
recorded_measurement = 170


* * *

# Species: Rattus norvegicus
# PROCEDURE DETAILS: DrugMatrix - Regimen: Daily Repeat
# Assay type: toxicity, organism-based, Sprague-Dawley
# Parameters: regimen Daily Repeat, gender Male, age 6-8 weeks
# EXPERIMENTAL CONDITIONS: in vivo, ip, 0 mg/kg, 120 h, tissue Blood, route intraperitoneal, dose level Control, time 5 day, vehicle 100 % SALINE
ENDPOINT LABEL: ABSOLUTE LYMPHOCYTE

[[record]]
smiles_record = "NC[C@H]1O[C@H](O[C@H]2[C@H](O)[C@@H](O[C@H]3O[C@H](CO)[C@@H](O)[C@H](N)[C@H]3O)[C@H](N)C[C@@H]2N)[C@H](N)C[C@@H]1O"
recorded_measurement = "6630 cells/µL"


* * *

# Species on record: Rattus norvegicus
# PROCEDURE DETAILS: DrugMatrix - Regimen: Daily Repeat
# Assay type: toxicity, organism-based, Sprague-Dawley
# Parameters: regimen Daily Repeat, gender Male, age 6-8 weeks
# EXPERIMENTAL CONDITIONS: in vivo, po, 100 mg/kg, 72 h, tissue Plasma, route oral GAVAGE, dose level Low, time 3 day, vehicle .5 % CMC
Measured ALANINE AMINOTRANSFERASE of individual entries
ENDPOINT LABEL: ALANINE AMINOTRANSFERASE (u/L)

[[record]]
compound = "Nc1nc2c(c(=O)[nH]1)N(C=O)C(CNc1ccc(C(=O)N[C@@H](CCC(=O)O)C(=O)O)cc1)CN2 (some centres undefined)"
endpoint_label = "ALANINE AMINOTRANSFERASE"
recorded_measurement = 62.33

[[record]]
compound = "C#C[C@]1(O)CC[C@H]2[C@@H]3CCC4=Cc5oncc5C[C@]4(C)[C@H]3CC[C@@]21C"
endpoint_label = "ALANINE AMINOTRANSFERASE"
recorded_measurement = 44.33

[[record]]
compound = "CC[C@]1(O)CC[C@H]2[C@@H]3CCC4=CCCC[C@@H]4[C@H]3CC[C@@]21C"
endpoint_label = "ALANINE AMINOTRANSFERASE"
recorded_measurement = 38

[[record]]
compound = "CC=Cc1ccc(O)c(OC)c1"
endpoint_label = "ALANINE AMINOTRANSFERASE"
recorded_measurement = 53.33


* * *

# Organism: Rattus norvegicus
# PROCEDURE DETAILS: DrugMatrix - Regimen: Daily Repeat
# Type: toxicity, organism-based, Sprague-Dawley
# Parameters: regimen Daily Repeat, gender Male, age 6-8 weeks
# EXPERIMENTAL CONDITIONS: in vivo, ip, 40 mg/kg, 120 h, tissue Blood, route intraperitoneal, dose level High, time 5 day, vehicle 100 % SALINE
ENDPOINT LABEL: ABSOLUTE BASOPHIL (cells/µL)

[[record]]
smiles_record = "NC[C@H]1O[C@H](O[C@H]2[C@H](O)[C@@H](O[C@H]3O[C@H](CO)[C@@H](O)[C@H](N)[C@H]3O)[C@H](N)C[C@@H]2N)[C@H](N)C[C@@H]1O"
reading_unit = "cells/µL"
recorded_measurement = 78


* * *

# Species on record: Rattus norvegicus
# PROCEDURE DETAILS: DrugMatrix - Regimen: Daily Repeat
# Type: toxicity, organism-based, Sprague-Dawley
# Design: regimen Daily Repeat, gender Male, age 6-8 weeks
# EXPERIMENTAL CONDITIONS: in vivo, po, 0 mg/kg, 120 h, tissue Plasma, route oral GAVAGE, dose level Control, time 5 day, vehicle 100 % WATER
ENDPOINT LABEL: CHOLESTEROL

[[record]]
compound = "CCCc1nn(C)c2c(=O)[nH]c(-c3cc(S(=O)(=O)N4CCN(C)CC4)ccc3OCC)nc12"
endpoint_label = "CHOLESTEROL"
recorded_measurement = "69.17 mg/dL"

[[record]]
compound = "CN1C2CCCC1CC(NC(=O)c1nn(C)c3ccccc13)C2 (configuration not stated)"
endpoint_label = "CHOLESTEROL"
recorded_measurement = "62.33 mg/dL"

[[record]]
compound = "O=P1(N(CCCl)CCCl)NCCCO1 (configuration not stated) [CYCLOPHOSPHAMIDE ANHYDROUS]"
endpoint_label = "CHOLESTEROL"
recorded_measurement = "71.5 mg/dL"

[[record]]
compound = "CNS(=O)(=O)Cc1ccc2[nH]cc(CCN(C)C)c2c1"
endpoint_label = "CHOLESTEROL"
recorded_measurement = "65.33 mg/dL"

[[record]]
compound = "Nc1ccc(S(=O)(=O)Nc2nccs2)cc1"
endpoint_label = "CHOLESTEROL"
recorded_measurement = "62.33 mg/dL"

[[record]]
compound = "O=C(O)c1cccnc1"
endpoint_label = "CHOLESTEROL"
recorded_measurement = "67.83 mg/dL"

[[record]]
compound = "OCCO"
endpoint_label = "CHOLESTEROL"
recorded_measurement = "69.17 mg/dL"

[[record]]
compound = "CCN[C@@H](C)Cc1cccc(C(F)(F)F)c1"
endpoint_label = "CHOLESTEROL"
recorded_measurement = "65.5 mg/dL"

[[record]]
compound = "Nc1ccc(S(=O)(=O)Nc2ncccn2)cc1"
endpoint_label = "CHOLESTEROL"
recorded_measurement = "65.5 mg/dL"

[[record]]
compound = "CCCCCCCCCCCCCCCC[n+]1ccccc1.[Br-]"
endpoint_label = "CHOLESTEROL"
recorded_measurement = "72.17 mg/dL"

[[record]]
compound = "CC(C)(C)NC[C@H](O)COc1nsnc1N1CCOCC1"
endpoint_label = "CHOLESTEROL"
recorded_measurement = "62.33 mg/dL"

[[record]]
compound = "CCN(CC)CC#CCOC(=O)C(O)(c1ccccc1)C1CCCCC1 (configuration not stated)"
endpoint_label = "CHOLESTEROL"
recorded_measurement = "66.5 mg/dL"

[[record]]
compound = "CCOC(N)=O"
endpoint_label = "CHOLESTEROL"
recorded_measurement = "71.33 mg/dL"

[[record]]
compound = "CC[C@H]1OC(=O)[C@H](C)[C@@H](O[C@H]2C[C@@](C)(OC)[C@@H](O)[C@H](C)O2)[C@H](C)[C@@H](O[C@@H]2O[C@H](C)C[C@H](N(C)C)[C@H]2O)[C@](C)(OC)C[C@@H](C)C(=O)[C@H](C)[C@@H](O)[C@]1(C)O"
endpoint_label = "CHOLESTEROL"
recorded_measurement = "71.33 mg/dL"

[[record]]
compound = "CC[C@H]1OC(=O)[C@H](C)[C@@H](O[C@H]2C[C@@](C)(OC)[C@@H](O)[C@H](C)O2)[C@H](C)[C@@H](O[C@@H]2O[C@H](C)C[C@H](N(C)C)[C@H]2O)[C@](C)(O)C[C@@H](C)CN(C)[C@H](C)[C@@H](O)[C@]1(C)O"
endpoint_label = "CHOLESTEROL"
recorded_measurement = "67.5 mg/dL"

[[record]]
compound = "O=C(O)c1cc(=O)c2c(OCC(O)COc3cccc4oc(C(=O)O)cc(=O)c34)cccc2o1"
endpoint_label = "CHOLESTEROL"
recorded_measurement = "60.5 mg/dL"

[[record]]
compound = "Cc1c(N(C)CS(=O)(=O)[O-])c(=O)n(-c2ccccc2)n1C.[Na+] [DIPYRONE SODIUM]"
endpoint_label = "CHOLESTEROL"
recorded_measurement = "76.33 mg/dL"


* * *

# Species on record: Rattus norvegicus
# PROCEDURE DETAILS: DrugMatrix - Regimen: Daily Repeat
# Format: toxicity, organism-based, Sprague-Dawley
# Parameters: regimen Daily Repeat, gender Male, age 6-8 weeks
# EXPERIMENTAL CONDITIONS: in vivo, po, 80 mg/kg, 2184 h, tissue Blood, route oral GAVAGE, dose level Low, time 91 day, vehicle .5 % CMC
ENDPOINT LABEL: ABSOLUTE LYMPHOCYTE (cells/µL)

[[record]]
smiles_record = "O=c1cc(-c2ccccc2)oc2ccc3ccccc3c12"
endpoint_label = "ABSOLUTE LYMPHOCYTE"
recorded_measurement = 11200

